# assay_explanation: Selectivity index, ratio of IC50 for CHO cells to IC50 for Plasmodium falciparum NF54
# Format: toxicity, cell-based
# experimental_setup: hamster, read-out: Ratio IC50
The label depends only on selectivity ratio: 1 if it is at least 6, -1 if it is smaller.

1. CC(=O)O[C@H]1C[C@@]2(C)[C@@H](C[C@@H](O)[C@H]3[C@@]4(C)CC[C@@H](O)[C@@H](C)[C@@H]4CC[C@@]32C)/C1=C(\CCC=C(C)C)c1n[nH]c(=S)o1 = 1
2. CCc1noc(/C(CCC=C(C)C)=C2\[C@@H](OC(C)=O)C[C@@]3(C)[C@H]2C[C@@H](O)[C@H]2[C@@]4(C)CC[C@@H](O)[C@@H](C)[C@@H]4CC[C@@]23C)n1 = 1
3. CC(=O)O[C@H]1C[C@@]2(C)[C@@H](C[C@@H](O)[C@H]3[C@@]4(C)CC[C@@H](O)[C@@H](C)[C@@H]4CC[C@@]32C)/C1=C(\CCC=C(C)C)C(=O)NN = -1
4. CC(=O)O[C@H]1C[C@@]2(C)[C@@H](C[C@@H](O)[C@H]3[C@@]4(C)CC[C@@H](O)[C@@H](C)[C@@H]4CC[C@@]32C)/C1=C(\CCC=C(C)C)C(=O)NC#N = 1

Now look at this entry.
## Input Given the entry CC(=O)O[C@H]1C[C@@]2(C)[C@@H](C[C@@H](O)[C@H]3[C@@]4(C)CC[C@@H](O)[C@@H](C)[C@@H]4CC[C@@]32C)/C1=C(\CCC=C(C)C)c1nc(-c2ccc(F)cc2)no1 , answer whether its selectivity ratio meets or surpasses 6.
## Output 1

----------
# assay_explanation: Selectivity index, ratio of IC50 for CHO cells to IC50 for Plasmodium falciparum NF54
# Format: toxicity, cell-based
# experimental_setup: hamster, read-out: Ratio IC50
Examples of compounds with documented selectivity ratio follow.
// no unit string in output, number only

// known answers, use as guide
1. CCCc1noc(/C(CCC=C(C)C)=C2\[C@@H](OC(C)=O)C[C@@]3(C)[C@H]2C[C@@H](O)[C@H]2[C@@]4(C)CC[C@@H](O)[C@@H](C)[C@@H]4CC[C@@]23C)n1 = 32
2. CCCS(=O)(=O)NNC(=O)/C(CCC=C(C)C)=C1\[C@@H](OC(C)=O)C[C@@]2(C)[C@H]1C[C@@H](O)[C@H]1[C@@]3(C)CC[C@@H](O)[C@@H](C)[C@@H]3CC[C@@]12C = 14
3. CC(=O)O[C@H]1C[C@@]2(C)[C@@H](C[C@@H](O)[C@H]3[C@@]4(C)CC[C@@H](O)[C@@H](C)[C@@H]4CC[C@@]32C)/C1=C(\CCC=C(C)C)C(N)=O = 3
4. CC(=O)O[C@H]1C[C@@]2(C)[C@@H](C[C@@H](O)[C@H]3[C@@]4(C)CC[C@@H](O)[C@@H](C)[C@@H]4CC[C@@]32C)/C1=C(\CCC=C(C)C)c1nc(C)no1 = 13
5. CC(=O)O[C@H]1C[C@@]2(C)[C@@H](C[C@@H](O)[C@H]3[C@@]4(C)CC[C@@H](O)[C@@H](C)[C@@H]4CC[C@@]32C)/C1=C(\CCC=C(C)C)C(=O)NS(=O)(=O)c1ccc(F)c(F)c1 = 11

## Input Could you tell me which selectivity ratio is on file for CC(=O)O[C@H]1C[C@@]2(C)[C@@H](C[C@@H](O)[C@H]3[C@@]4(C)CC[C@@H](O)[C@@H](C)[C@@H]4CC[C@@]32C)/C1=C(\CCC=C(C)C)c1n[nH]c(=O)o1 ?
## Output 9

## Input How about CC(=O)O[C@H]1C[C@@]2(C)[C@@H](C[C@@H](O)[C@H]3[C@@]4(C)CC[C@@H](O)[C@@H](C)[C@@H]4CC[C@@]32C)/C1=C(\CCC=C(C)C)C(=O)NNC(=O)c1cccs1 ?
## Output 9

## Input How about CC(=O)O[C@H]1C[C@@]2(C)[C@@H](C[C@@H](O)[C@H]3[C@@]4(C)CC[C@@H](O)[C@@H](C)[C@@H]4CC[C@@]32C)/C1=C(\CCC=C(C)C)C(=O)NNS(=O)(=O)c1ccc(C)cc1 ?
## Output 4

## Input How about CC(=O)O[C@H]1C[C@@]2(C)[C@@H](C[C@@H](O)[C@H]3[C@@]4(C)CC[C@@H](O)[C@@H](C)[C@@H]4CC[C@@]32C)/C1=C(\CCC=C(C)C)C(=O)NNS(=O)(=O)c1ccc(Cl)cc1 ?
## Output 2

Source: ChEMBL document CHEMBL3774384
